// provenance: PubChem BioAssay (NCI)

- System: SN12C renal
Answer with one of the outcomes 1 for active, 0 for inactive

Known results for compounds:
compound=COc1ccc2nc(NC(=O)c3cccnc3Nc3cc(OC)c(OC)c(OC)c3)sc2c1 label=0
compound="Nc1nc(N)c2nc(CNc3ccc(C(=O)NC(CCCCNC(=O)c4ccccc4C(=O)O)C(=O)O)cc3)cnc2n1 (stereo not drawn)" label=1
compound=Cc1ccc(-c2nc(N3CCCNCC3)c3oc(-c4ccc(C)cc4)nc3n2)cc1 label=0
compound=Cn1cnc([N+](=O)[O-])c1Sc1ncn[nH]1 label=0
compound=CCN(CC)CCSCCCNc1c2ccc(Cl)cc2nc2ccc(OC)cc12 label=0

QUERY: Could you kindly confirm the outcome this assay logged for Cn1c(=O)c(Oc2ccc(F)cc2F)cc2cnc(NCCS(C)(=O)=O)nc21 ?
RESULT: 0

QUERY: Tell me the assay call for CC(C)CCN[C@@H]1CCc2cc(O)c(N3CC(=O)NS3(=O)=O)c(F)c2C1 please.
RESULT: 0

QUERY: Called result for COc1cc2c3c(n(CCCN=[N+]=[N-])c(=O)c2cc1OC)-c1ccc(N(C)C)cc1C3=O
RESULT: 0
